Each recorded value in this set is attributed to the OligoGym collection.

Molecular target: ADRA1D; note: reference of the scale not given here
Test: pooled miR-30 sensor sort-seq; sequence = guide strand
Settings: shRNA
readout-type: sensor-assay potency score (higher = more potent)

residue-string	experimental-value
TGCTGTAGTCGGCCAATTCGTA	-0.975
TAGTCGGCCAATTCGTAGGCCT	-0.797
TACATGACCACGATGACCGCCA	0.517
TAGATGAGCGGGTTCACGCAGC	-0.546
TAGTTGGTGACGGTCTGCAGGT	-0.977
TACCGGTCCACGGAGATGGTGC	-1.15
